Target: T1, Mcl-1, Q07820
T1 chain: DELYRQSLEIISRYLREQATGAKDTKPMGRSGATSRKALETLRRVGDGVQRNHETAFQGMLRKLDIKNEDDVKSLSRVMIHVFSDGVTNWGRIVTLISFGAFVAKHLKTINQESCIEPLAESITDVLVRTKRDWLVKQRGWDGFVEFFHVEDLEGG
Experiment: peptide SPOT array, c-Myc-tagged receptor at 1 uM or 100 nM, anti-c-Myc-Cy3
measure_name: SPOT signal as a fraction of Bim BH3's signal on the same receptor and array
Could you respond with only the numeric value?

Some solved cases for reference:
binder | reported_measurement
ASEASLFEEALEKYGKDFNDIRQDFL [MTA3] | 0.02
FRLAQMCGLHIVVHLDELEELINYYQ [CLTC] | 0.02
GLFSATSGVDDKYVADTFGQEVRPVS [DDX7] | 0.01

Inquiry: Indicate its recorded SPOT signal as a fraction of Bim BH3's signal on the same receptor and array; the binder in question is SKFVILSAHKDVFIGDTLSRQAKAAD [BCAR1]
Reply text: 0.02

Inquiry: Indicate its recorded SPOT signal as a fraction of Bim BH3's signal on the same receptor and array; the binder in question is GGRVKLVHSALIQLLDSLSHKGNEFW [WDR60]
Reply text: 0.23

Inquiry: Indicate its recorded SPOT signal as a fraction of Bim BH3's signal on the same receptor and array; the binder in question is MRSQLGKATALAIMLDKLWWADQVSE [LRP1]
Reply text: 0.18
